Assay: self-splicing fitness, log relative to wild type (ln ratio); higher = more splicing; Tetrahymena group I intron in knt gene, E. coli kanamycin selection, DiMSum; sequences stand for … in CUCUCU…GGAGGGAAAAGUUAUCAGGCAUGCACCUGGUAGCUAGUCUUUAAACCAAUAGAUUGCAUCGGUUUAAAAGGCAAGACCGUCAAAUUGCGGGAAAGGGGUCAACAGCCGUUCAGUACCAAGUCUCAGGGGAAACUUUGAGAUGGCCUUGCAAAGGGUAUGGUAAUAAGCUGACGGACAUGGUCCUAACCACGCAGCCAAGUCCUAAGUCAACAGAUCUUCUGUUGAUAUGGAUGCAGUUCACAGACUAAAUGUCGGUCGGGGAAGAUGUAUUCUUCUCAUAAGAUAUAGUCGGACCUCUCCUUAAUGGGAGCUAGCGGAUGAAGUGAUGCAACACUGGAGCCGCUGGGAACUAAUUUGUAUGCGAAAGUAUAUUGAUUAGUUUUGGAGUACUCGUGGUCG;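 note: selection with 25 µg/mL kanamycin versus none on LB agar overnight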
Details: 37 °C
Values of self-splicing fitness (ln) greater than or equal to -2 map to YES; values below map to NO.

biopolymer-sequence: GAGUAGCAAUAUUACGCGUC
label-class: YES
--
biopolymer-sequence: UGGCAGCAAUAUUACGUAAC
label-class: NO
--
biopolymer-sequence: GUACAGCAAUAUUACGGACC
label-class: NO
--
biopolymer-sequence: GAGCAGCAAUAUUACGGUUU
label-class: YES
--
biopolymer-sequence: CAAUAGCAAUAUUACGGCCG
label-class: YES
--
biopolymer-sequence: ACAAAGCAAUAUUACGUCGG
label-class: YES
--
biopolymer-sequence: UCCCAGCAAUAUUACGUGUG
label-class: NO
--
biopolymer-sequence: UUAGAGCAAUAUUACGCGUU
label-class: YES
--
biopolymer-sequence: AAGUAGCAAUAUUACGUAGU
label-class: NO
--
biopolymer-sequence: UCAUAGCAAUAUUACGGGGC
label-class: NO
--
biopolymer-sequence: CUCAAGCAAUAUUACGCAUU
label-class: NO
--
biopolymer-sequence: AUGGAGCAAUAUUACGGCUU
label-class: YES
--
biopolymer-sequence: UUGAAGCAAUAUUACGAACC
label-class: YES
--
biopolymer-sequence: UUACAGCAAUAUUACGGGGG
label-class: YES
--
biopolymer-sequence: GUACAGCAAUAUUACGCUCG
label-class: YES
--
biopolymer-sequence: CACAAGCAAUAUUACGGGAU
label-class: YES

----------
Listing of recorded self-splicing fitness (ln) by entry.
Assay: self-splicing fitness, log relative to wild type (ln ratio); higher = more splicing; Tetrahymena group I intron in knt gene, E. coli kanamycin selection, DiMSum; sequences stand for … in CUCUCU…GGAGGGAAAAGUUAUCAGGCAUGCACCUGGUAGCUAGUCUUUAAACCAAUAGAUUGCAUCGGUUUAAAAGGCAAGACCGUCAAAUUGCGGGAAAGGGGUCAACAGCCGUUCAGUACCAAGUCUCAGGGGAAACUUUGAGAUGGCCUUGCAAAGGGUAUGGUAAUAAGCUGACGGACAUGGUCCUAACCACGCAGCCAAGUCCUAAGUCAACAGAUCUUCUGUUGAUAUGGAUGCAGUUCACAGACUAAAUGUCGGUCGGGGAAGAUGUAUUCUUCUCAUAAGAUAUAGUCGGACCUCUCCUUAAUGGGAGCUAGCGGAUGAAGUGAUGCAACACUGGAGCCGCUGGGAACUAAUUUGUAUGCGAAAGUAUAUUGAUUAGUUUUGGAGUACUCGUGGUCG
Conditions: 30 °C

biopolymer-sequence: CCGUAGCAAUAUUACGACGU
self-splicing fitness (ln): -0.571

biopolymer-sequence: AGGGAGCAAUAUUACGAGGU
self-splicing fitness (ln): -2.64

biopolymer-sequence: AAAUAGCAAUAUUACGCUAU
self-splicing fitness (ln): -2.9

biopolymer-sequence: UAAGAGCAAUAUUACGUUCU
self-splicing fitness (ln): -3.45

biopolymer-sequence: UUAUAGCAAUAUUACGUAGA
self-splicing fitness (ln): -1.34

biopolymer-sequence: UAUUAGCAAUAUUACGGUCA
self-splicing fitness (ln): -0.76

biopolymer-sequence: GCCAAGCAAUAUUACGGGGA
self-splicing fitness (ln): -0.604

biopolymer-sequence: GGGCAGCAAUAUUACGAUUU
self-splicing fitness (ln): -0.054

biopolymer-sequence: ACGUAGCAAUAUUACGUAGG
self-splicing fitness (ln): -3.76

biopolymer-sequence: AUUCAGCAAUAUUACGUGAA
self-splicing fitness (ln): -0.88

biopolymer-sequence: GGGUAGCAAUAUUACGCGAC
self-splicing fitness (ln): -2.34

biopolymer-sequence: CCCAAGCAAUAUUACGUUUU
self-splicing fitness (ln): -3.95

biopolymer-sequence: UCUUAGCAAUAUUACGUAAU
self-splicing fitness (ln): -5

biopolymer-sequence: UUACAGCAAUAUUACGUCUC
self-splicing fitness (ln): -2.98

biopolymer-sequence: GGCGAGCAAUAUUACGUCAG
self-splicing fitness (ln): -2.33

biopolymer-sequence: AUAAAGCAAUAUUACGCCGU
self-splicing fitness (ln): 0.151

----------
Assay: self-splicing fitness, log relative to wild type (ln ratio); higher = more splicing; Tetrahymena group I intron in knt gene, E. coli kanamycin selection, DiMSum; sequences stand for … in CUCUCU…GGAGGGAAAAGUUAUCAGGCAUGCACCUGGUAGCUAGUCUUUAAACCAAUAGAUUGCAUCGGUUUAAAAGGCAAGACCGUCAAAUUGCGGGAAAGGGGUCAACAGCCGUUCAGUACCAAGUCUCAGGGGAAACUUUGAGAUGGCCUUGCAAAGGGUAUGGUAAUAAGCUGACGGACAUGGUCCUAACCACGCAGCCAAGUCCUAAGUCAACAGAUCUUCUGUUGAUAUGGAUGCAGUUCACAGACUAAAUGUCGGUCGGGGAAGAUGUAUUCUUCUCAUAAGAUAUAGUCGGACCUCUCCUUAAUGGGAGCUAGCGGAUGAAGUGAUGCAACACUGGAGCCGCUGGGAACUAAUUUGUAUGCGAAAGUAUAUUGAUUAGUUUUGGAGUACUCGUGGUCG
Settings: 37 °C
Values of self-splicing fitness (ln) greater than or equal to -2 map to Criterion met; values below map to Criterion not met.

biopolymer-sequence: ACUUAGCAAUAUUACGGUCA
label-class: Criterion met

biopolymer-sequence: GCCGAGCAAUAUUACGCAGC
label-class: Criterion not met

biopolymer-sequence: AAAAAGCAAUAUUACGUAGC
label-class: Criterion met

biopolymer-sequence: GGAAAGCAAUAUUACGAACG
label-class: Criterion met

biopolymer-sequence: CAAGAGCAAUAUUACGAUGC
label-class: Criterion not met

biopolymer-sequence: GAAUAGCAAUAUUACGGAAC
label-class: Criterion met

biopolymer-sequence: CGACAGCAAUAUUACGUGGA
label-class: Criterion not met

biopolymer-sequence: UGUCAGCAAUAUUACGAGGG
label-class: Criterion met

biopolymer-sequence: AACUAGCAAUAUUACGUUUC
label-class: Criterion not met

biopolymer-sequence: AGUUAGCAAUAUUACGGACU
label-class: Criterion met

biopolymer-sequence: UGGUAGCAAUAUUACGGAAG
label-class: Criterion met

biopolymer-sequence: UUGUAGCAAUAUUACGAGCG
label-class: Criterion met

biopolymer-sequence: AGACAGCAAUAUUACGGUGC
label-class: Criterion met

biopolymer-sequence: GCCCAGCAAUAUUACGAAUG
label-class: Criterion not met

biopolymer-sequence: GUCUAGCAAUAUUACGGCGG
label-class: Criterion not met

----------
Assay: self-splicing fitness, log relative to wild type (ln ratio); higher = more splicing; Tetrahymena group I intron in knt gene, E. coli kanamycin selection, DiMSum; sequences stand for … in CUCUCU…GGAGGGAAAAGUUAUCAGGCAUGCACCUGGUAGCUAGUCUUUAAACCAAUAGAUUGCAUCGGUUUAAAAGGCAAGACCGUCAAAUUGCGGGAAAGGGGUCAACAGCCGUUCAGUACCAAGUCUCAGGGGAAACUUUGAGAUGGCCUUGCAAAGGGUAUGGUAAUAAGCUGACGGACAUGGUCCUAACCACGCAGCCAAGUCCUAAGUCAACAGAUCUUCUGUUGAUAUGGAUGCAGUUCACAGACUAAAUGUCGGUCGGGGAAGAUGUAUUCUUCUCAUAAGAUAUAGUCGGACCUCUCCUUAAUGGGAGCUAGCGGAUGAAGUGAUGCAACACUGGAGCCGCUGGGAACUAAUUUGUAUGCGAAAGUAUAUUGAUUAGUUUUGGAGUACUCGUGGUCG
Details: 37 °C
Values of self-splicing fitness (ln) greater than or equal to -2 map to rule met; values below map to rule not met.

biopolymer-sequence: GAAAAGCAAUAUUACGUGUG
label-class: rule met
--
biopolymer-sequence: GUCUAGCAAUAUUACGGGCU
label-class: rule not met
--
biopolymer-sequence: UAUAAGCAAUAUUACGGUCG
label-class: rule met
--
biopolymer-sequence: UAUUAGCAAUAUUACGUUUU
label-class: rule met
--
biopolymer-sequence: GAUGAGCAAUAUUACGUAAG
label-class: rule not met
--
biopolymer-sequence: CCGAAGCAAUAUUACGAGUC
label-class: rule not met
--
biopolymer-sequence: CCGCAGCAAUAUUACGUUCC
label-class: rule met
--
biopolymer-sequence: AAUGAGCAAUAUUACGUCGA
label-class: rule not met
--
biopolymer-sequence: CACUAGCAAUAUUACGAUGU
label-class: rule met
--
biopolymer-sequence: AAAAAGCAAUAUUACGCUCU
label-class: rule met
--
biopolymer-sequence: UGCUAGCAAUAUUACGCUCG
label-class: rule met
--
biopolymer-sequence: UAUAAGCAAUAUUACGUUCU
label-class: rule met
--
biopolymer-sequence: GAGAAGCAAUAUUACGACUA
label-class: rule met
--
biopolymer-sequence: AUAGAGCAAUAUUACGGGAC
label-class: rule not met
--
biopolymer-sequence: CGGUAGCAAUAUUACGCUCU
label-class: rule not met
--
biopolymer-sequence: AGGCAGCAAUAUUACGCCAC
label-class: rule not met
